System: Pseudomonas aeruginosa
measurementDescription: Antibacterial activity against Pseudomonas aeruginosa ATCC 27853 assessed as effect on planktonic growth at 1.37 ug/ml after 20 hrs relative to control
Format: functional
parameterMeasured: Activity (%)
Expressed in %, but write only the number.

Recorded Activity, per entry:
[[record]]
molecule = "COc1ccccc1C1=C(Br)C(=O)N(CC(C)C)/C1=C\\c1ccc(C(F)(F)F)cc1"
measurementtarget = "Pseudomonas aeruginosa"
unitlabel = "%"
valueobserved = -5.9

[[record]]
molecule = "COc1ccccc1C1=C(Br)C(=O)N(CC(C)C)C1(O)Cc1ccc(C(F)(F)F)cc1 (stereo not given)"
measurementtarget = "Pseudomonas aeruginosa"
unitlabel = "%"
valueobserved = -19.3

[[record]]
molecule = "COc1ccc(C)cc1C1=C(Br)C(=O)O/C1=C\\c1ccccc1Cl"
measurementtarget = "Pseudomonas aeruginosa"
unitlabel = "%"
valueobserved = -7.5

[[record]]
molecule = "COc1ccc(Br)cc1C1=C(Br)C(=O)N(CC(C)C)C1(O)Cc1cccc(Cl)c1 (stereo not given)"
measurementtarget = "Pseudomonas aeruginosa"
unitlabel = "%"
valueobserved = -6.6

[[record]]
molecule = "COc1ccc(Cl)cc1C1=C(Br)C(=O)N(CC(C)C)/C1=C/c1ccccc1Br"
measurementtarget = "Pseudomonas aeruginosa"
unitlabel = "%"
valueobserved = -5.8


Below: the item to evaluate.
Query: Quickly give me recorded Activity for COc1ccc(C)cc1C1=C(Br)C(=O)N(CC(C)C)/C1=C\c1cccc(Cl)c1
Reply: 0

---

System: Staphylococcus aureus
measurementDescription: Antibacterial activity against Staphylococcus aureus ATCC 25923 assessed as effect on planktonic growth at 0.68 ug/ml after 20 hrs relative to control
Type: functional
Items are presented alongside their recorded Activity.
# unit: % | format: bare number

Would you please look over these solved cases?
[[record]]
molecule = "COc1ccc(Br)cc1C1=C(Br)C(=O)N(CC(C)C)C1(O)Cc1cccc(Cl)c1 (stereo not drawn)"
parametermeasured = "Activity"
valueobserved = 3.1

[[record]]
molecule = "COc1cccc(/C=C2\\OC(=O)C(Br)=C2c2cc(Cl)ccc2OC)c1"
parametermeasured = "Activity"
valueobserved = 47.2

[[record]]
molecule = "COc1cccc(/C=C2/C(c3cc(Cl)ccc3OC)=C(Br)C(=O)N2CC(C)C)c1"
parametermeasured = "Activity"
valueobserved = -9.6

[[record]]
molecule = "COc1ccccc1C1=C(Br)C(=O)O/C1=C\\c1ccc(C(F)(F)F)cc1"
parametermeasured = "Activity"
valueobserved = -2.3

[[record]]
molecule = "COc1ccc(Br)cc1C1=C(Br)C(=O)N(CC(C)C)/C1=C\\c1cccc(Cl)c1"
parametermeasured = "Activity"
valueobserved = 1.1


Then this molecule:
Query: Using known records, supply Activity for COc1ccccc1C1=C(Br)C(=O)N(CC(C)C)/C1=C\c1ccc(C(F)(F)F)cc1
Reply: -18.1

---

Tested on: Pseudomonas aeruginosa
measurementDescription: Antibacterial activity against Pseudomonas aeruginosa ATCC 27853 assessed as effect on planktonic growth at 0.17 ug/ml after 20 hrs relative to control
Assay type: functional
parameterMeasured: Activity (%)
Report only the number, with the unit % understood.

[[record]]
compound = "COc1ccc(C)cc1C1=C(Br)C(=O)N(CC(C)C)C1(O)Cc1cccc(Cl)c1 (stereo not given)"
unitlabel = "%"
valueobserved = -1.6


Query: // fetch Activity; item: COc1ccc(C)cc1C1=C(Br)C(=O)O/C1=C\c1cccc(Cl)c1 ; system: Pseudomonas aeruginosa
Reply: -3

Query: Param request: Activity | system Pseudomonas aeruginosa | item COc1ccc(Br)cc1C1=C(Br)C(=O)O/C1=C\c1cccc(Cl)c1
Reply: 1.4

Query: Answer briefly: Activity recorded on Pseudomonas aeruginosa for COc1ccc(Cl)cc1C1=C(Br)C(=O)N(CC(C)C)C1(O)Cc1ccccc1Br (stereo not given)
Reply: -7.2

Query: Provide the reported Activity (system: Pseudomonas aeruginosa) for COc1ccc(Br)cc1C1=C(Br)C(=O)N(CC(C)C)/C1=C\c1cccc(Cl)c1
Reply: 0.6
